These data points were gathered from PubChem BioAssay (NCI).

# Experiment summary: NCI Yeast Anticancer Drug Screen. Data for the rad50 strain (AID 155);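 further: 0% = growth of vehicle-only cultures of the same strain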
# Condition set: S. cerevisiae rad50 strain growth inhibition; at 50.0 µM; stronger effect = higher value
About 79,000 compounds went through this panel and 15% of them were active in at least one assay; those are over-represented in the sample as a whole.
Mark 1 for reported growth inhibition of 20% or greater; mark 0 for anything smaller.

NC(=O)CNC(=O)[C@@H]1C[C@@H](OCCC(=O)O)CN1C(=O)OCc1ccccc1 | 0

# input API: above_or_equal(metric=growth inhibition, cutoff=20%) for item CCCCOC(=O)OCCOCCOC(=O)OCCCC
# output 0

====

Reported growth inhibition is given for each of the following compounds.
# Experiment summary: NCI Yeast Anticancer Drug Screen. Data for the rad50 strain (AID 155);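 further: 0% = growth of vehicle-only cultures of the same strain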
# Condition set: S. cerevisiae rad50 strain growth inhibition; at 50.0 µM; stronger effect = higher value
About 79,000 compounds went through this panel and 15% of them were active in at least one assay; those are over-represented in the sample as a whole.
The reply should contain only the number, in %.

Cc1onc(-c2ccccc2Cl)c1-c1nc2ccccc2c(=O)o1 | 94.1

# input Please give the measured growth inhibition for this compound: Nc1nc(N)nc(CCCCc2nc(N)nc(N)n2)n1
# output -28.1

# input Find the recorded growth inhibition belonging to N#CC1C(=O)NC(=S)NC1c1ccc(Cl)c(Cl)c1 (centres undefined) and report it.
# output -3.15

====

# Experiment summary: NCI Yeast Anticancer Drug Screen. Data for the mec2-1 strain (AID 157)
# Condition set: S. cerevisiae mec2-1 strain, at 50.0 µM, stronger effect = higher value
The panel holds about 79,000 compounds, 15% with a hit somewhere; the sample as a whole holds those more often.
Reported property: growth inhibition (%)
Give the number; % is assumed, so skip it.

c1ccc(CSc2ncnc3oc(-c4ccccc4)nc23)cc1 | 17.2
O=CC1OC(c2ccccc2)OC1C1OC(c2ccccc2)OC1C=O (stereo not drawn) | 13.7
C=CCN(CC=C)CNC(C)=O | -14.7
O=C1C2C(C(=O)N1c1ccccc1)C1(c3ccccc3)CCC2(C(=O)c2ccccc2)O1 (stereo not drawn) | -14.3
O=[N+]([O-])c1cn(CCNc2c3ccccc3nc3ccccc23)cn1 | -5.35

# input // growth inhibition lookup, key: CC1COC2(CCCCC2)O1 (stereo not drawn)
# output -3.45

# input Would you kindly share the measured growth inhibition for C=CCNC(=O)ON1C(=O)CCC1=O ?
# output 3.05

# input For the compound Cc1cccc(OCC(O)CN(Cc2ccsc2)c2ccccn2)c1 (stereo not drawn) , what growth inhibition is on record?
# output 16.4

# input Suppose we examine the compound NN1CC(=O)N(c2ccccc2)CC1=O ; what growth inhibition value has been reported?
# output 4.45

# input Name the reported growth inhibition value associated with the compound O=C(Nc1nncs1)c1cccs1
# output -6.45

# input What value of growth inhibition has been recorded for this entry: O=S1(=O)OCCOS(=O)(=O)C1S(=O)(=O)c1ccc2ccccc2c1
# output -6.15

====

# Experiment summary: NCI Yeast Anticancer Drug Screen. Data for the bub3 strain (AID 167)
# Condition set: S. cerevisiae bub3 mutant strain, at 50.0 µM, stronger effect = higher value
The panel holds about 79,000 compounds, 15% with a hit somewhere; the sample as a whole holds those more often.
Quick reference: growth inhibition of the listed items.
Your answer should be a plain number; it is taken to be in %.

Example cases with answers are listed next.
CC1=C(C#N)C(C)(C)c2ccccc21 | 10
CCC(CC)CC1CCCCC1=O (stereo not drawn) | -20.6
Nc1nc(N)c2cc(CNc3ccc(C(=O)NC(C(=O)O)C(=O)O)cc3)ccc2n1 | -14.2

# input GET /values?readout=growth inhibition&item= [N-]=[N+]=Nc1nc2c(N)ncnc2n1C1OC(CO)C(O)C1O (stereo not drawn)
# output -1.35

# input Field request: growth inhibition | item: Cc1ccc2ccccc2c1CC(=O)NN
# output 6.9

# input So what does the record say about growth inhibition for CCCC(C)C(=O)OCCOC (stereo not drawn) ?
# output 4.45

# input Requested field: growth inhibition. Item: COC(=O)C1CCC=CC1OC(C)=O (stereo not drawn)
# output 5.25

# input Quick one: growth inhibition for Brc1cccc(N=NN2CCCC2)c1 ?
# output 7.7

# input Entry under review: O=P(c1ccccc1)(c1ccccc1)c1ccccc1OCc1cccc(COc2ccccc2P(=O)(c2ccccc2)c2ccccc2)n1 . Reported growth inhibition?
# output -2.6

# input Quick check: growth inhibition of CC(C)(C)c1nc2c(o1)C(=Nc1ccc(F)cc1)c1ccccc1C2=O ?
# output 0.65

# input Look at this compound and give its reported growth inhibition. COc1ccc(C[N+](C)(C)N)cc1OC
# output -40.5

# input Need growth inhibition, item CC(=O)OCCOCNC(=S)NCc1ccco1
# output 5.85

# input Look up growth inhibition: O=C(NCCc1c[nH]c2ccccc12)C1CC1
# output 7.05
